System: OVCAR-3
Procedure Details: NCI tumour cell line growth inhibition, 48 h
The source made the active and inactive calls. Rule as the data show it: active = GI50 up to about 1.1 µM and inactive = higher.
Hello, when you answer, please use one of the following outcomes: True for active, False for inactive

Would you please look over these solved cases?
>>> class_assignment("COc1cc(/C=C/C(=O)CC(=O)/C=C/c2cc(C)c(O)c(OC)c2)cc(C)c1O")
"False"
>>> class_assignment("Nc1ncnc2c1ccn2C1OC2COP(=O)(O)OC2C1O (stereo unspecified)")
"True"
>>> class_assignment("O=C(O)c1cccc(F)c1C(=O)c1ccc2ccccc2c1")
"False"

Name the outcome recorded for CCCCNC1CCC2(SCCS2)c2[nH]c3ccccc3c21 (stereo unspecified) in the assay. False

Would you mind telling me which call this test gave O=C1/C(=C2/C(=O)N(c3ccccc3)c3ccccc32)Nc2ccccc21 ? False

Hi, sorry to bother you, what did the test record for COC(=O)CC(C(C(=O)OC)C(=O)OC)N1C(=O)OC(c2ccccc2)C1c1ccccc1 (stereo unspecified) ? False

Recorded test outcome, item NC(CCSC(F)F)C(=O)O (stereo unspecified) False

Per the records of this test, what outcome belongs to Cc1cc(/N=C/c2ccc(Cl)cc2)n(-c2ccccc2)n1 ? False

Which outcome did this test record for the compound CCOC(=O)C1=CNC2=N[C@H]3CCCC[C@@H]3N2C1=O ? False

Outcome logged for FC(F)(F)c1ccc2nc(NCc3ccccc3)c(-c3ccccc3)nc2c1 in this assay: False

For C[C@H]1[C@H](C)CC[C@]2(C(=O)O)CCC3(COC(=O)/C=C/c4ccc(O)cc4)C(=CCC4[C@@]5(C)CC[C@H](O)C(C)(C)C5CC[C@]43C)[C@H]12 (stereo partly specified) , which call appears in the assay record? False

# fetch the recorded call for COC(=O)CCc1ccc2c(c1)CCC2 here False

State the result this test recorded for Cc1ccc2c(O)cc(-c3cccc(Cl)c3)nc2n1 . True

// return assay outcome for CCOC(=O)[C@H]1Nc2ccc(Cl)cc2[C@H]2CCC[C@@H]12 False

The origin of these recorded values is ChEMBL document CHEMBL1201862.
